Reference source: ChEMBL document CHEMBL1140122

Assay: Cytotoxicity against BALB mouse 3T3 cells after 48 hrs
Type: cell-based
Condition notes: BALB 3T3 cells
Listing of entries alongside the reported GI50 at 48 h.

Structure smiles string: COc1ccc(CCC(=O)c2c(O)cc(O)cc2OC)cc1
GI50 at 48 h: > 206 µM

Query string: GI50 at 48 h lookup needed for O=c1[nH]cc(F)c(=O)[nH]1 , thanks.
Result string: < 1.54 µM

Query string: Continue with COc1ccc(CCC(=O)c2c(O)cc(OC)cc2OC)cc1
Result string: > 197 µM
